Measured IC50 accompanies every entry in the list below.
Experimental system: hOX1R (Homo sapiens)
Construct: expressed in transfected cells
Sequence (O43613 whole entry): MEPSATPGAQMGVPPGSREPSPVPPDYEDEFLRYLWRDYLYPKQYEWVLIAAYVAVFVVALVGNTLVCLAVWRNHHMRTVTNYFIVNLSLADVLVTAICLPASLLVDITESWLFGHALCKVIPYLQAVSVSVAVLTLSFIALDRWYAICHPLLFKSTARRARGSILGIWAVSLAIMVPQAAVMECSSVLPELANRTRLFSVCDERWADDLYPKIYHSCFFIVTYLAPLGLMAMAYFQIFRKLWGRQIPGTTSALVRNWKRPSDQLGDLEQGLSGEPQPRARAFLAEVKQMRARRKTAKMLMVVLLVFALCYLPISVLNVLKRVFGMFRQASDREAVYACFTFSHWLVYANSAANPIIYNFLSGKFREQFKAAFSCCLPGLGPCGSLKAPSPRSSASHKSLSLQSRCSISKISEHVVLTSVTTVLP
Method summary: In vitro test of OX1R: calcium signal change in cells detected with FLIPR
Format: cell-based
Run conditions: IC50 detected in FLIPR, hOX1R, HEK293-OX1 stable cell strain, Fluo-4 AM calcium signal, Orexin A at EC70

Compound | Experimental system | IC50
Cc1nc(C(=O)N2C3CC[C@H]2CC[C@@H]3COc2ccc(F)cn2)c(-c2ccccc2)s1 [Example 10] | hOX1R (Homo sapiens) | 29 nM
Cc1ccc(-c2ncccn2)c(C(=O)N2C3CC[C@H]2CC[C@@H]3COc2ccc(F)cc2F)c1 [Example 30] | hOX1R (Homo sapiens) | 489 nM
O=C(c1ccc(F)cc1-n1nccn1)N1C2CC[C@H]1CC[C@@H]2COc1ccc(F)cn1 [Example 15] | hOX1R (Homo sapiens) | 37 nM
Cc1ccc(-c2cccnc2)c(C(=O)N2C3CCC2[C@@H](COc2ccc(F)cn2)CC3)c1 (some centres unmarked) [Example 33] | hOX1R (Homo sapiens) | 10 nM
Cc1ccc(-c2ccncc2)c(C(=O)N2C3CC[C@H]2CC[C@@H]3COc2ccc(F)cn2)c1 [Example 13] | hOX1R (Homo sapiens) | 47 nM
O=C(c1cc(Cl)ccc1-c1ncccn1)N1C2CC[C@H]1CC[C@@H]2COc1ccc(F)cn1 [Example 18] | hOX1R (Homo sapiens) | 127 nM
Cc1ccc(-c2ccccc2)c(C(=O)N2C3CC[C@H]2CC[C@@H]3COc2ccc(F)cn2)c1 [Example 12] | hOX1R (Homo sapiens) | 219 nM
O=C(c1cc(C(F)(F)F)ccc1-c1ncccn1)N1C2CC[C@H]1CC[C@@H]2COc1ccc(F)cn1 [Example 35] | hOX1R (Homo sapiens) | 2070 nM
Cc1ccc(-n2cccn2)c(C(=O)N2C3CC[C@H]2CC[C@@H]3COc2ccc(F)cn2)c1 [Example 20] | hOX1R (Homo sapiens) | 7 nM
Cc1cccc(S(=O)(=O)N2C3CC[C@H]2CC[C@@H]3COc2ccc(F)cn2)c1 [Example 22] | hOX1R (Homo sapiens) | 2420 nM
Cc1ccc(OCC2CCC3CCC2N3C(=O)c2cc(C)ccc2-c2ncccn2)nc1 (centres unmarked) [Example 24] | hOX1R (Homo sapiens) | 56 nM
